// provenance: paper PMC12777753

Test system: A/California/151/2024
Experiment: microbe, parasite or virus in culture
Type: cell-based, influenza A(H5N1) virus
Settings: Influenza A virus, read-out: PA inhibitor EC50 ± SD
Attribute measured: pEC50
Please express pEC50 as -log10 of the molar concentration.

pEC50 reading for O=C1c2c(O)c(=O)ccn2N([C@@H]2c3ccccc3SCc3c2ccc(F)c3F)[C@@H]2COCCN12 : 9.14

----------
Tested on: A/California/153/2024
Test: microbe, parasite or virus in culture
Assay type: cell-based, influenza A(H5N1) virus
Conditions: Influenza A virus, read-out: PA inhibitor EC50 ± SD
Attribute measured: pEC50
Scale explanation: pEC50 corresponds to minus log10 of a concentration expressed in moles per litre.

Memo: O=C1c2c(O)c(=O)ccn2N([C@@H]2c3ccccc3SCc3c2ccc(F)c3F)[C@@H]2COCCN12 [Baloxavir, baloxavir acid] , reported pEC50: 9.23

----------
Target: NA of A/California/155/2024 (Influenza A virus, UniProt Q9Q0U7)
Sequence (Q9Q0U7 whole entry, looked up): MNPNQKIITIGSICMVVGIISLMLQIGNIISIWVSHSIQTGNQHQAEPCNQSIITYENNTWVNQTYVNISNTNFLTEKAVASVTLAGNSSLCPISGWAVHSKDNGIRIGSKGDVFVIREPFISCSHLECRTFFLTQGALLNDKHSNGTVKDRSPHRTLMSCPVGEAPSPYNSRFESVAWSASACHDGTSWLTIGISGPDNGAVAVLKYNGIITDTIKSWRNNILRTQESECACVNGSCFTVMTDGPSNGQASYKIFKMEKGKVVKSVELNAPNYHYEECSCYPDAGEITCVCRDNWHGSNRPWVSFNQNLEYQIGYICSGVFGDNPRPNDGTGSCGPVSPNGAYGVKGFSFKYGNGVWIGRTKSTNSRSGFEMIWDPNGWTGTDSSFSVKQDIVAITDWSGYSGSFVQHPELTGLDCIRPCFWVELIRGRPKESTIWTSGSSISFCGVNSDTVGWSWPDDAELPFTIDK
Conditions: read-out: NA inhibitor IC50 ± SD
Attribute measured: IC50 (nM)
Numbers only here, please. The scale is nM.

IC50 in this record for CC(=O)N[C@H]1[C@H]([C@H](O)[C@H](O)CO)OC(C(=O)O)=C[C@@H]1N=C(N)N : 0.16

----------
System: A/bald eagle/FL/2022 (H5N1)
Assay: microbe, parasite or virus in culture
Format: cell-based, influenza A(H5N1) virus
Settings: Influenza A virus, H5N1, read-out: PA inhibitor EC50 ± SD
Attribute measured: pEC50
Note on pEC50: it is the negative log10 of concentration, concentration in mol/L.

In plain terms, O=C1c2c(O)c(=O)ccn2N([C@@H]2c3ccccc3SCc3c2ccc(F)c3F)[C@@H]2COCCN12 [Baloxavir, baloxavir acid] has a documented pEC50 of 9.41

----------
System: A/Illinois/08/2018 (H1N1)pdm09
Assay: microbe, parasite or virus in culture
Assay type: cell-based, influenza A(H1N1)pdm09 virus
Details: Influenza A virus, H1N1, read-out: PA inhibitor EC50 ± SD
Attribute measured: pEC50
Convention used: pEC50 is expressed as -log10 of the molar concentration.

Lab note: measured pEC50 of O=C1c2c(O)c(=O)ccn2N([C@@H]2c3ccccc3SCc3c2ccc(F)c3F)[C@@H]2COCCN12 was 9.02

----------
Biological target: NA of A/Iowa/24/2024 (Influenza A virus, UniProt Q9Q0U7)
Sequence (Q9Q0U7 whole entry, looked up): as above
Details: read-out: NA inhibitor IC50 ± SD
Attribute measured: IC50 (nM)
Express the result in nM but write the number alone.

Reported NA of A/Iowa/24/2024 (Influenza A virus, UniProt Q9Q0U7) IC50 for item CC(=O)N[C@H]1[C@H]([C@H](O)[C@H](O)CO)OC(C(=O)O)=C[C@@H]1N=C(N)N was 0.34
